Source: the NIST ThermoML archive (doi:10.1021/acs.jced.7b00060)

- method: refractive index (Na D-line) (dimensionless)
- particulars: 333.15 K; 101.33 kPa; Liquid; Standard Abbe refractometry
Please respond with reported refractive index for every item in the list.
Give bare numbers.

Some molecules with known refractive index results, for comparison:
molecule: CC[S+](CC)CC.O=S(=O)([N-]S(=O)(=O)C(F)(F)F)C(F)(F)F [triethylsulfonium bis((trifluoromethyl)sulfonyl)imide]
observed.result: 1.4161

molecule: CC[S+](C)CC.O=S(=O)([N-]S(=O)(=O)C(F)(F)F)C(F)(F)F [diethylmethylsulfonium bis[(trifluoromethyl)sulfonyl]imide]
observed.result: 1.4132

molecule: CCCC[n+]1ccccc1.O=S(=O)([N-]S(=O)(=O)C(F)(F)F)C(F)(F)F [1-butylpyridinium bis[(trifluoromethyl)sulfonyl]imide]
observed.result: 1.4324

Okay, now this molecule:
input: Please report the recorded refractive index for CCCC[N+]1(C)CCCC1.N#CN=C=[N-] [1-butyl-1-methylpyrrolidinium dicyanamide] .
output: 1.48
